test-system: HLA-B*51:01
protocol-details: IEDB peptide-MHC binding, purified MHC/competitive/radioactivity; filed as Kd, often an IC50 or EC50 that approximates it; bounds were set here for any values at or beyond the usual limits of such assays
condition-label: source organism: Dengue virus 3 Martinique/1243/1999
measured-parameter: Kd
Please make sure the unit comes right after the number.

Recorded Kd for VPPLPLFIF , please?
3.58 µM

Recorded Kd for LAFSIMKSV , please?
0.155 µM

###

test-system: HLA-A*02:19
protocol-details: IEDB peptide-MHC binding, purified MHC/direct/fluorescence; filed as Kd, often an IC50 or EC50 that approximates it; bounds were set here for any values at or beyond the usual limits of such assays
condition-label: source organism: Yersinia enterocolitica subsp. enterocolitica 8081
measured-parameter: Kd

Recorded Kd for KSRQGDTKV , please?
≥ 20 µM

// data source = the Immune Epitope Database (IEDB)
